The reader will find reported IC50 values listed item by item below.
- target_or_system: human PD-L1 / Human PD-1 (Homo sapiens (Human))
- method_summary: Enzyme-Linked Immunosorbent Assay (ELISA), PD-1/PD-L1 binding
- condition_notes: plate-coated human PD-L1, biotinylated human PD-1

compound	IC50
CCOc1cc(O[C@H]2CCc3c(-c4cccc(OCCCN5CCC5(C)C)c4C)cccc32)c(Cl)cc1CN1CC(C#N)C1	5 to 500 nM

Q: Need IC50, item `Cc1c(OCCCN2CCC(C)(F)CC2)cccc1-c1cccc2c1CC[C@@H]2Oc1cc(OCc2cncc(C#N)c2)c(CN[C@@H]2CCC(=O)NC2)cc1Cl`
Ans: < 5 nM

Q: Need IC50, item CC(CO)(NCc1cc(Cl)c(O[C@H]2CCc3c(-c4cccc(OCCCN5CCOCC5)c4Cl)cccc32)cc1OCc1cncc(C#N)c1)C(=O)O (stereo partly drawn)
Ans: < 5 nM

Q: Need IC50, item `Cc1c(OCCCN2CCC(C)CC2)cccc1-c1cccc2c1CC[C@@H]2Oc1cc(OCc2cc(C#N)cc(C#N)c2)c(CNC[C@H]2CCC(=O)N2)cc1Cl`
Ans: < 5 nM

Q: Need IC50, item `N#Cc1cncc(COc2cc(O[C@H]3CCc4c(-c5cccc(OCCCN6CC7(CC(F)C7)C6)c5Cl)cccc43)c(Cl)cc2CN[C@@H]2CCC[C@H]2O)c1`
Ans: < 5 nM

Q: Need IC50, item `N#Cc1cncc(COc2cc(O[C@H]3CCc4c(-c5cccc(OCCCN6CC(F)(F)C6)c5Cl)cccc43)c(Cl)cc2CN[C@@H]2CCCC[C@@H]2O)c1`
Ans: 5 to 500 nM

* * *

- target_or_system: human PD-L1 / Human PD-1 (Homo sapiens (Human))
- method_summary: Enzyme-Linked Immunosorbent Assay (ELISA), PD-1/PD-L1 binding
- condition_notes: plate-coated human PD-L1, biotinylated human PD-1
The reader will find reported IC50 values listed item by item below.

Take a look at these entries with their results.
molecule	target_or_system	IC50
CCOc1cc(O[C@H]2CCc3c(-c4cccc(OCCCN5CCOCC5)c4C)cccc32)c(Cl)cc1CN1CC(C)(C(=O)O)C1	human PD-L1 / Human PD-1 (Homo sapiens (Human))	5 to 500 nM
Cc1c(OCCCN2CCC(O)CC2(C)C)cccc1-c1cccc2c1CC[C@@H]2Oc1cc(OCc2cc(C#N)cc(C#N)c2)c(CN[C@H]2CCC(=O)NC2)cc1Cl (stereo partly drawn)	human PD-L1 / Human PD-1 (Homo sapiens (Human))	< 5 nM

Q: Need IC50, item Cc1c(OCCCN2CCC(F)CC2)cccc1-c1cccc2c1CC[C@@H]2Oc1cc(OCc2cc(C#N)cc(C#N)c2)c(CN2CCC3(C2)NC(=O)NC3=O)cc1Cl (stereo partly drawn)
Ans: 5 to 500 nM

* * *

- target_or_system: human PD-L1 / Human PD-1 (Homo sapiens (Human))
- method_summary: Enzyme-Linked Immunosorbent Assay (ELISA), PD-1/PD-L1 binding
- condition_notes: plate-coated human PD-L1, biotinylated human PD-1
measured_quantity: IC50

Take a look at these entries with their results.
compound	IC50
CCOC(=O)CCN(C)Cc1cc(Cl)c(O[C@H]2CCc3c(-c4cccc(OCCCN5CCC5(C)C)c4C)cccc32)cc1OCC	5 to 500 nM
CCOc1cc(O[C@@H]2c3cccc(-c4cccc(OCCCN5CCC(C)(F)CC5)c4C)c3C[C@@H]2F)c(Cl)cc1CNC[C@@H]1CCC(=O)N1	5 to 500 nM
Cc1c(OCCCN2CCC(F)CC2)cccc1-c1cccc2c1CC[C@@H]2Oc1cc(OCc2cc(C#N)cc(C#N)c2)c(CN[C@@H]2CCCNC2=O)cc1Cl	5 to 500 nM
Cc1c(OCCCN2CCC(O)CC2)cccc1-c1cccc2c1CC[C@@H]2Oc1cc(OCc2cc(C#N)cc(C#N)c2)c(CN[C@@](C)(CO)C(=O)O)cc1Cl	< 5 nM
C[C@@H](O)[C@H](NCc1cc(Cl)c(O[C@H]2CCc3c(-c4cccc(OCCCN5CCC(F)CC5)c4Cl)cccc32)cc1OCc1cncc(C#N)c1)C(=O)NS(C)(=O)=O	< 5 nM

Now consider a different compound.
Q: Need IC50, item COC(=O)C1(O)CCN(CCCOc2cccc(-c3cccc4c3CC[C@@H]4Oc3cc(OCc4cncc(C#N)c4)c(CN[C@H](C(=O)O)[C@@H](C)O)cc3Cl)c2C)C1 (stereo partly shown)
Ans: < 5 nM

* * *

- target_or_system: human PD-L1 / Human PD-1 (Homo sapiens (Human), UniProt Q9NZQ7)
- Sequence (Q9NZQ7 19-239): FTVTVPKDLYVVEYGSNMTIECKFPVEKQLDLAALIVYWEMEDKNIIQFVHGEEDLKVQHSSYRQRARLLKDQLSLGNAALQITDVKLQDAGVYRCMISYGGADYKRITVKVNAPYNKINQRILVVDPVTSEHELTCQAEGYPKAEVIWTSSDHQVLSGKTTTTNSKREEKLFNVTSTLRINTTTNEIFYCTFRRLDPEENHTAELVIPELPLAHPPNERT
- method_summary: Enzyme-Linked Immunosorbent Assay (ELISA), PD-1/PD-L1 binding
- condition_notes: plate-coated human PD-L1, biotinylated human PD-1
pIC50: −log10 of the molar value.
measured_quantity: pIC50

Take a look at these entries with their results.
compound	pIC50
CCOc1cc(O[C@H]2CCc3c(-c4cccc(OCCCN5CCCCC5(C)C)c4C)cccc32)c(Cl)cc1CNC[C@@H]1CCC(=O)N1	6.30 to 8.30
Cc1c(OCCCN2CCC(F)CC2)cccc1-c1cccc2c1CC[C@@H]2Oc1cc(OCc2cc(C#N)cc(C#N)c2)c(CN[C@H]2CCCNC2=O)cc1Cl	6.30 to 8.30

Q: Need pIC50, item `Cc1c(OCCCN2CCC[C@@H](F)C2)cccc1-c1cccc2c1CC[C@@H]2Oc1cc(OCc2cc(C#N)cc(C#N)c2)c(CN[C@H]2CCC(=O)NC2)cc1Cl`
Ans: 6.30 to 8.30

Q: Need pIC50, item `N#Cc1cncc(COc2cc(O[C@H]3CCc4c(-c5cccc(OCCCN6CCC(F)CC6)c5Cl)cccc43)c(Cl)cc2CN[C@@H]2CCOC[C@@H]2F)c1`
Ans: 6.30 to 8.30

Q: Need pIC50, item `CCOc1cc(O[C@H]2CCc3c(-c4cccc(OCCCN5[C@H](C)CC[C@H]5C)c4C)cccc32)c(Cl)cc1CN1CCC[C@@H](C(=O)O)C1`
Ans: 6.30 to 8.30

Q: Need pIC50, item `CCOc1cc(O[C@@H]2c3cccc(-c4cccc(OCCCN5CCC(F)CC5)c4Cl)c3C[C@@H]2F)c(Cl)cc1CNC[C@H]1CCC(=O)N1`
Ans: 6.30 to 8.30

* * *

- target_or_system: human PD-L1 / Human PD-1 (Homo sapiens (Human), UniProt Q9NZQ7)
- method_summary: Enzyme-Linked Immunosorbent Assay (ELISA), PD-1/PD-L1 binding
- condition_notes: plate-coated human PD-L1, biotinylated human PD-1
pIC50: −log10 of the molar value.
The reader will find reported pIC50 values listed item by item below.

compound	target_or_system	measured_quantity	test_result
CCOc1cc(O[C@H]2CCc3c(-c4cccc(OCCCN5CC(O)C5)c4C)cccc32)c(Cl)cc1CN[C@@H](CO)C(=O)O	human PD-L1 / Human PD-1 (Homo sapiens (Human), UniProt Q9NZQ7)	pIC50	> 8.30

Q: Need pIC50, item `CCOc1cc(O[C@H]2CCc3c(-c4cccc(OCCCN5CC[C@@H](O)C5)c4C)cccc32)c(Cl)cc1CNC(C)(CO)CO`
Ans: > 8.30

* * *

- target_or_system: human PD-L1 / Human PD-1 (Homo sapiens (Human), UniProt Q9NZQ7)
- method_summary: Enzyme-Linked Immunosorbent Assay (ELISA), PD-1/PD-L1 binding
- condition_notes: plate-coated human PD-L1, biotinylated human PD-1
pIC50: −log10 of the molar value.
measured_quantity: pIC50

Take a look at these entries with their results.
compound	test_result
Cc1c(OCCCN2CCC(F)CC2)cccc1-c1cccc2c1CC[C@@H]2Oc1cc(OCc2cncc(C(N)=O)c2)c(CN(C)CCC(=O)O)cc1Cl	> 8.30
CCOc1cc(O[C@H]2CCc3c(-c4cccc(OCCCN5CCC(F)CC5)c4Cl)cccc32)c(Cl)cc1CN[C@@H]1CCCC[C@@H]1O	6.30 to 8.30
COc1cc(O[C@H]2CCc3c(-c4cccc(OCCCN5CCC(F)CC5)c4C)cccc32)c(Cl)cc1CN[C@H]1CCC(=O)NC1	6.30 to 8.30
N#Cc1cncc(COc2cc(O[C@H]3CCc4c(-c5cccc(OCCCN6CC7(C6)CC(F)(F)C7)c5Cl)cccc43)c(Cl)cc2CN2CC3(C2)NC(=O)NC3=O)c1	6.30 to 8.30
CCOc1cc(O[C@H]2CCc3c(-c4cccc(OCCCN5CCC5(C)C)c4C)cccc32)c(Cl)cc1CN1CC(C)(C(=O)O)C1	6.30 to 8.30
Cc1c(OCCCN2CCC(O)CC2)cccc1-c1cccc2c1C[C@H](F)[C@@H]2Oc1cc(OCc2cncc(C#N)c2)c(CN[C@@H]2CCCC[C@@H]2O)cc1Cl	> 8.30
N#Cc1cncc(COc2cc(O[C@H]3CCc4c(-c5cccc(OCCCN6CC7(CC(F)C7)C6)c5Cl)cccc43)c(Cl)cc2CN[C@@H]2CCC[C@@H]2O)c1	> 8.30
Cc1c(OCCCN2CCC(F)CC2)cccc1-c1cccc2c1CC[C@@H]2Oc1cc(OCc2cncc(C#N)c2)c(CN2CC(S(N)(=O)=O)C2)cc1Cl	6.30 to 8.30

Q: Need pIC50, item `Cc1c(OCCCN2CCC(O)CC2)cccc1-c1cccc2c1CC[C@@H]2Oc1cc(OCCCN2CC[C@H](O)C2)c(CN[C@@H]2CCCC[C@@H]2O)cc1Cl`
Ans: > 8.30
